B1: minF1; a variant is named by its letters at N, in order (parent)
chain: GAGACCGCAACTGAAAAGTTGTTATCAGAAATGNNNGGNTNNNTTTCTGCACGTAGAAGCAAAAGGC

Variants of: B1
assay.details: fraction ligated after 30 min (ligated reads / total reads); higher = more ligase activity
condition.description: with F1*subA RNA substrate (template-directed ligation), 42 °C
The threshold is inclusive: fraction ligated of exactly 0.007 counts as 1; values below receive -1.

{"columns": ["record.sequence", "qualitative.label"],
 "data": [
  ["GAGACCGCAACTGAAAAGTTGTTATCAGAAATGGATGGGTTCGTTTCTGCACGTAGAAGCAAAAGGC [GATGTCG]", -1],
  ["GAGACCGCAACTGAAAAGTTGTTATCAAAATGGATGGGTTGAATTTCTGCACGTAGAAGCAAAAGGC [ATGTGAA G28A A31T T32G]", 1],
  ["GAGACCGCAACTGAAAAGTTGTTATAGAAATGGATGGGTTGAATTTCTGCACGTAGAAGCAAAAGGC [ATGTGAA C26A A27G G28A A31T T32G]", 1],
  ["GAGACCGCAACTGAAAAGTTGTTATCGAAATGGATGGGTTGAATTTCTGCACGTAGAAGCAAAAGGC [ATGTGAA A27G G28A A31T T32G]", 1],
  ["GAGACCGCAACTGAAAAGTTGTTATCAGAAATGGATGGGTTAGTTTCTGCACGTAGAAGCAAAAGGC [GATGTAG]", -1],
  ["GAGACCGCAACTGAAAAGTTGTTATCAGAAATGGATGGGTTAATTTCTGCACGTAGAAGCAAAAGGC [GATGTAA]", 1],
  ["GAGACCGCAACTGAAAAGTTGTTATCAGAAATGGTGGGTTGAATTTCTGCACGTAGAAGCAAAAGGC [GTGTGAA]", 1],
  ["GAGACCGCAACTGAAAAGTTGTTATCAGAAATGGAGGGTTGAATTTCTGCACGTAGAAGCAAAAGGC [GAGTGAA]", -1],
  ["GAGACCGCAACTGAAAAGTTGTTATCAGAAATGGATGGGTTTTTTTCTGCACGTAGAAGCAAAAGGC [GATGTTT]", -1],
  ["GAGACCGCAACTGAAAAGTTGTTTCAGAAATGGATGGGTTGAATTTCTGCACGTAGAAGCAAAAGGC [ATGTGAA A24T T25C C26A A27G G28A A31T T32G]", 1],
  ["GAGACCGCAACTGAAAAGTTGTTATCAGAAATGGATGGGTTTGTTTCTGCACGTAGAAGCAAAAGGC [GATGTTG]", -1],
  ["GAGACCGCAACTGAAAAGTTGTTACAGAAATGGATGGGTTGAATTTCTGCACGTAGAAGCAAAAGGC [ATGTGAA T25C C26A A27G G28A A31T T32G]", 1],
  ["GAGACCGCAACTGAAAAGTTGTTATCAGAAATGGATGGGTTATTTTCTGCACGTAGAAGCAAAAGGC [GATGTAT]", -1],
  ["GAGACCGCAACTGAAAAGTTGTTATCAGAAATGGATGGGTTACTTTCTGCACGTAGAAGCAAAAGGC [GATGTAC]", -1],
  ["GAGACCGCAACTGAAAAGTTGTTATCAGAAATGGATGGGTTCCTTTCTGCACGTAGAAGCAAAAGGC [GATGTCC]", -1],
  ["GAGACCGCAACTGAAAAGTTGTTATCAGAAATGGATGGTTGAATTTCTGCACGTAGAAGCAAAAGGC [GATTGAA]", 1],
  ["GAGACCGCAACTGAAAAGTTGTTATCAGAAATGGATGGGTTGGTTTCTGCACGTAGAAGCAAAAGGC [GATGTGG]", -1],
  ["GAGACCGCAACTGAAAAGTTGTTATCAGAATGGATGGGTTGAATTTCTGCACGTAGAAGCAAAAGGC [ATGTGAA A31T T32G]", 1],
  ["GAGACCGCAACTGAAAAGTTGTTATCAGAAATGATGGGTTGAATTTCTGCACGTAGAAGCAAAAGGC [ATGTGAA]", 1],
  ["GAGACCGCAACTGAAAAGTTGTTATCAGAAATGGATGGGTTGCTTTCTGCACGTAGAAGCAAAAGGC [GATGTGC]", 1],
  ["GAGACCGCAACTGAAAAGTTGTTATCAGAAATGGATGGGTTCTTTTCTGCACGTAGAAGCAAAAGGC [GATGTCT]", -1],
  ["GAGACCGCAACTGAAAAGTTGTTATCAGAAATGGATGGGTTGTTTTCTGCACGTAGAAGCAAAAGGC [GATGTGT]", -1],
  ["GAGACCGCAACTGAAAAGTTGTTATCAGAAAGGATGGGTTGAATTTCTGCACGTAGAAGCAAAAGGC [ATGTGAA T32G]", 1],
  ["GAGACCGCAACTGAAAAGTTGTTATCAGAAATGGATGGGTTTCTTTCTGCACGTAGAAGCAAAAGGC [GATGTTC]", -1],
  ["GAGACCGCAACTGAAAAGTTGTTATCAGAAATGGATGGGTTCATTTCTGCACGTAGAAGCAAAAGGC [GATGTCA]", 1],
  ["GAGACCGCAACTGAAAAGTTGTATCAGAAATGGATGGGTTGAATTTCTGCACGTAGAAGCAAAAGGC [ATGTGAA T23A A24T T25C C26A A27G G28A A31T T32G]", 1],
  ["GAGACCGCAACTGAAAAGTTGTTATCAGAAATGGATGGGTTTATTTCTGCACGTAGAAGCAAAAGGC [GATGTTA]", 1],
  ["GAGACCGCAACTGAAAAGTTGTTATCAGAAATGGATGGGTTGATTTCTGCACGTAGAAGCAAAAGGC [GATGTGA]", 1]
]}
